Listed below: TGI values for each entry.
test system: EKVX NSCLC; assay: NCI tumour cell line growth inhibition, 48 h
State the answer as a number, implicitly in µM.

Solved entries:
- compound: "C=C1CC(C)(c2ccc(Nc3nc4ccccc4c4occc34)cc2)OC1=O (stereo unspecified)"
  tgt: "EKVX NSCLC"
  units_symbol: "µM"
  TGI: 24.5
- compound: "O=C(N/N=C/c1ccco1)c1cc(I)cc(I)c1O"
  tgt: "EKVX NSCLC"
  units_symbol: "µM"
  TGI: 37.2
- compound: "Nc1c(C(=O)c2ccc(Cl)cc2)[nH]c(NCc2ccccc2)c1C(=S)Nc1ccccc1"
  tgt: "EKVX NSCLC"
  units_symbol: "µM"
  TGI: 20.1
- compound: "c1ccc(/C(=N/Nc2ccccn2)c2ncccn2)cc1"
  tgt: "EKVX NSCLC"
  units_symbol: "µM"
  TGI: 5.73

For the compound COc1ccc2c(c1)CC1=C(O2)c2ccc(OC)cc2OC1 , report TGI. 52.5
